tested_on: KRAS-G12D (Homo sapiens, UniProt P01116, G12D)
Sequence (P01116 with tags, fused parts or gaps isoform P01116-2 G12D): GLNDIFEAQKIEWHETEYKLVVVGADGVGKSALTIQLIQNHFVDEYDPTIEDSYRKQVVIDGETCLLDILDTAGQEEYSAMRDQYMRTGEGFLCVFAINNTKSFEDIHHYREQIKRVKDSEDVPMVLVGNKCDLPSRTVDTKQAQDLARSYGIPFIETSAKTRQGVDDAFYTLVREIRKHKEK
procedure_text: SOS-catalyzed nucleotide exchange assay (Procedure A, TR-FRET), KRAS-G12D
Format: biochemical
condition_context: nucleotide exchange, read-out: KRAS G12D GNE IC50
experimental_readout: log10 IC50 (log10 of the value in nM)
Values below are the log10 of the recorded IC50, with nM as the unit.

## Input Recorded log10 IC50 of C#Cc1c(C)cc2[nH]ncc2c1-c1nccc2c1sc1nc(OC[C@@]34CCCN3C[C@H](F)C4)nc(N3CCOC[C@@](C)(O)C3)c12 , please.
## Output 1.13

## Input Record: C[C@@]1(O)COCCN(c2nc(OC[C@@]34CCCN3C[C@H](F)C4)nc3sc4c(-c5c(C6(F)CC6)c(Cl)cc6[nH]ncc56)nccc4c23)C1
## Output 0.61

## Input Entry to check: C=C1CN2C[C@@H](F)C[C@@]2(COc2nc(N3CCOC[C@@](C)(O)C3)c3c(n2)sc2c(-c4c(C5CC5)c(Cl)cc5[nH]ncc45)nccc23)C1
## Output 1.47

## Input And what about the compound C[C@@]1(O)COCCN(c2nc(OC[C@]3(CN4CC(C#N)C4)CC3(F)F)nc3sc4c(-c5c(C6(F)CC6)c(Cl)cc6[nH]ncc56)nccc4c23)C1 ?
## Output 2.05

## Input Can you check Cc1cc2cnn(C)c2c(-c2nccc3c2sc2nc(OC[C@@]45CCCN4C[C@H](F)C5)nc(N4CCOC[C@@](C)(O)C4)c23)c1C(F)(F)F next?
## Output 2.46

## Input Continue with C[C@@]1(O)COCCN(c2nc(OC[C@@]34CCN3C[C@H](F)C4)nc3sc4c(-c5c(C6CC6)c(Cl)cc6[nH]ncc56)nccc4c23)C1 (single isomer, unassigned)
## Output 0.74
